// provenance: patent US6177592A

Please go through the items and note down their activity at 10 µM.
Tested on: HL-60 cells
Experiment: MTT growth inhibition of HL-60
Assay type: cell-based, human
Settings: Homo sapiens, HL-60; 10 μM; 48 hours; read-out: degree of cell growth (ratio of absorbance at 590 nm of sample-added section to control)
Procedure: (2) To each of the wells of a 96-well microtiter plate was added 8, 40, 200 or 1000 μM aqueous solution of GM or 10 μl of water as a control. […] Further, 100 μl of 2-propanol containing 0.04N hydrochloric acid was added followed by stirring and an absorbance at 590 nm was measured. […] Degree of cell growth was, however, expressed in terms of the ratio (%) of the absorbance at 590 nm of the section to which the sample was added to that of the control where water was added.
Give bare numbers, in %.

Check out these entries, answers already filled in.
COMPOUND	QUANTITATIVE READOUT
N[C@@H](CSC1CC(=O)C(O)C1O)C(=O)O (stereo partly shown) [CD]	89
N[C@@H](CCC(=O)N[C@@H](CSC1CC(=O)C(O)C1O)C(=O)NCC(=O)O)C(=O)O (stereo partly shown) [GD]	47.2
N[C@@H](CSC1C=C(O)C(=O)C1)C(=O)O (stereo partly shown) [CM]	48.9

Any idea what its activity at 10 µM is? The compound is N[C@@H](CCC(=O)N[C@@H](CSC1C=C(O)C(=O)C1)C(=O)NCC(=O)O)C(=O)O (stereo partly shown) [GM]
14.8
